We begin with a simple list: items and their reported melting point.
Result type: melting point

- Compound: "COC(=O)N1CCN(C2Cc3ccc(NC(=O)c4cccc(OC)c4-c4ccc(F)cc4)cc3C2)CC1 (stereo not drawn)"
  Experimental value: "132 to 134 °C"
- Compound: "COC1CCN(C2Cc3ccc(NC(=O)c4cccc(C)c4-c4ccc(C(F)(F)F)cc4)cc3C2)CC1 (stereo not drawn)"
  Experimental value: "197 to 199 °C"
- Compound: "O=C(Nc1ccc2c(c1)CC(N1CCOCC1)C2)c1ccccc1-c1ccc(C(F)(F)F)cc1 (stereo not drawn)"
  Experimental value: "191 to 194 °C"
